Hello, the source for this data is patent US20250074943A1, in case you need it.

Target: T1, recombinant DLL3 ectodomain (rhDLL3-Fc) (human, UniProt Q9NYJ7 27-492, biotinylated (NHS-LC-LC-biotin) in the BLI and SPR assays)
T1 construct: also called rDLL3-Fc; recombinant human DLL3 (rDLL3); not shown: Fc part
T1 sequence: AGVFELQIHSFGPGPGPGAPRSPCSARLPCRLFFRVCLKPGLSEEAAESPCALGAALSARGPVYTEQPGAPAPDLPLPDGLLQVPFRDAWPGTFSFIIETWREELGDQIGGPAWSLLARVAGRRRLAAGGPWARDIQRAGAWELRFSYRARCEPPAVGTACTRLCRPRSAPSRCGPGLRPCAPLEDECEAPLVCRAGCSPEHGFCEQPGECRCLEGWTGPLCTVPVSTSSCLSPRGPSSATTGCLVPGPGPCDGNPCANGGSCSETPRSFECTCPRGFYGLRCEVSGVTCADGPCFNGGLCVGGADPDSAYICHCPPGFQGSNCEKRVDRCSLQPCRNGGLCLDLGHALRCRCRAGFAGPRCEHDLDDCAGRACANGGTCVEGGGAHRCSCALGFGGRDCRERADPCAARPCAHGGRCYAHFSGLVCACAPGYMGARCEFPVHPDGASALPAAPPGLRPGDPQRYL
Experiment: BLI (Octet), biotinylated rhDLL3-Fc on streptavidin sensors
Bridge positions count the residues as written; N and C are the ends. Ends that are not written are not given here.
Parameter measured: Kd
The answer consists of two parts: a number and, after it, its unit.

**Q:** Can you look up the measured Kd of AETVEFDYCLWAPDAWGCQN-NH2 (disulfide 9-18) [PepSP1159] for me?
**A:** 900 nM

---
**Q:** I have this binder here, AETVEFRGCTGNVYDWTCVW-NH2 (disulfide 9-18 (inferred)) [PepSP1160] , and I need its recorded Kd.
**A:** 494 nM

**Q:** Query (binder): WGCTGTWGNETCWW-NH2 (disulfide 3-12 (inferred), PepSP1146 without AETVEF) [PepSP1213] ; field requested: Kd
**A:** 7500 nM

**Q:** What value of Kd has been reported for the following binder? AETVEFYGCYGEQEQWTCLW-NH2 (disulfide 9-18 (inferred)) [PepSP1173]
**A:** 106 nM
